Test system: HOP-92 NSCLC
Assay: NCI tumour cell line growth inhibition, 48 h

molecule: O=c1[nH]nc(Cc2ccc(Cl)cc2)n1/N=C/c1ccc([N+](=O)[O-])o1
TGI: > 46.8 µM

molecule: C1CN(c2nnc(N3CCC3)nn2)C1
TGI: > 100 µM

molecule: CSc1nc2nc3c(nc2c(=O)n1C)C(=O)c1ccccc1C3=O
TGI: 2.59 µM

molecule: N#CC(C(=O)CCCC(=O)Nc1ccc(Cl)cc1Cl)c1ccccc1 (stereo unspecified)
TGI: > 100 µM

molecule: Oc1ccc(-c2nc3ccccc3s2)cc1
TGI: > 100 µM

molecule: Cc1c(C(=O)O)n(C)c(=O)n(C)c1=O
TGI: > 100 µM

molecule: CCOC1=C(c2ccccc2)N2CCCCC2O1 (stereo unspecified)
TGI: 6 µM

molecule: Cc1c2cccc-2ccc2c3ccccc3n(C(=O)c3ccc(Cl)cc3)c12
TGI: > 100 µM

molecule: O=C(O)c1cccc(NC(C(=O)c2ccccc2)c2ccccc2)c1 (stereo unspecified)
TGI: > 100 µM

molecule: COc1ccc(C)cc(=O)c1O
TGI: > 100 µM

molecule: Nc1c(S(=O)(=O)O)cc(S(=O)(=O)O)c2ccc(N=Nc3ccc(/C=C/c4ccc(N=Nc5ccc6c(S(=O)(=O)O)cc(S(=O)(=O)O)c(N)c6c5O)cc4S(=O)(=O)O)c(S(=O)(=O)O)c3)c(O)c12
TGI: > 100 µM
